Tumor/kidney uptake ratio values for the molecules below.
Tested on: PSMA-expressing LNCaP tumor xenografts
Method: Ex vivo biodistribution in LNCaP tumor-bearing mice
Conditions: LNCaP tumor-bearing mice, 1 h post injection, mean ± SD, n = 4
Protocol: Biodistribution studies were conducted at 1 h post injection with ^68Ga-labeled AV01017, AV01030, AV01038, HTK03041, and FAPI-04 in LNCaP tumor-bearing mice (Figure 5 and Table S4, Supplementary Materials). […] For biodistribution studies, the mice were injected with the radiotracer (~2–4 MBq) as described above. […] Blood was withdrawn by cardiac puncture, and organs/tissues of interest were collected, weighed, and counted using a Perkin Elmer (Waltham, MA, USA) Wizard2 2480 automatic gamma counter.

>  <Molecule>
N#C[C@@H]1CC(F)(F)CN1C(=O)CNC(=O)c1ccnc2ccc(OCCCN3CCN(C(=O)CN4CCN(CC(=O)[O-])CCN(CC(=O)[O-])CCN(CC(=O)[O-])CC4)CC3)cc12.[68Ga+3] [[^68Ga]Ga-FAPI-04, reference compound]

>  <Tumor/kidney uptake ratio>
0.90

$$$$
>  <Molecule>
N#C[C@@H]1CC(F)(F)CN1C(=O)CNC(=O)c1ccnc2ccc(-c3cn(CC(=O)N[C@@H](CCCCNC(=O)CN4CCN(CC(=O)[O-])CCN(CC(=O)[O-])CCN(CC(=O)[O-])CC4)C(=O)NCC(=O)NC[C@H]4CC[C@H](C(=O)N[C@@H](Cc5c6ccccc6cc6ccccc56)C(=O)NCCCC[C@H](NC(=O)N[C@@H](CCC(=O)O)C(=O)O)C(=O)O)CC4)nn3)cc12.[68Ga+3] [[^68Ga]Ga-AV01030]

>  <Tumor/kidney uptake ratio>
0.11

$$$$
>  <Molecule>
N#C[C@@H]1CC(F)(F)CN1C(=O)CNC(=O)c1ccnc2ccc(OCCCc3cn(CC(=O)N[C@@H](CCCCNC(=O)CN4CCN(CC(=O)[O-])CCN(CC(=O)[O-])CCN(CC(=O)[O-])CC4)C(=O)NCC(=O)NC[C@H]4CC[C@H](C(=O)N[C@@H](Cc5c6ccccc6cc6ccccc56)C(=O)NCCCC[C@H](NC(=O)N[C@@H](CCC(=O)O)C(=O)O)C(=O)O)CC4)nn3)cc12.[68Ga+3] [[^68Ga]Ga-AV01017]

>  <Tumor/kidney uptake ratio>
0.14

$$$$
